# Assayed system: T1, human LPAM-1-Fc (alpha4-Fc/beta7-Fc heterodimer) (human)
# T1 construct: Soluble heterodimer from CHO cells, Protein A purified
# T1 sequence (chain, as listed by the source limits assumed, chain 1 of 2): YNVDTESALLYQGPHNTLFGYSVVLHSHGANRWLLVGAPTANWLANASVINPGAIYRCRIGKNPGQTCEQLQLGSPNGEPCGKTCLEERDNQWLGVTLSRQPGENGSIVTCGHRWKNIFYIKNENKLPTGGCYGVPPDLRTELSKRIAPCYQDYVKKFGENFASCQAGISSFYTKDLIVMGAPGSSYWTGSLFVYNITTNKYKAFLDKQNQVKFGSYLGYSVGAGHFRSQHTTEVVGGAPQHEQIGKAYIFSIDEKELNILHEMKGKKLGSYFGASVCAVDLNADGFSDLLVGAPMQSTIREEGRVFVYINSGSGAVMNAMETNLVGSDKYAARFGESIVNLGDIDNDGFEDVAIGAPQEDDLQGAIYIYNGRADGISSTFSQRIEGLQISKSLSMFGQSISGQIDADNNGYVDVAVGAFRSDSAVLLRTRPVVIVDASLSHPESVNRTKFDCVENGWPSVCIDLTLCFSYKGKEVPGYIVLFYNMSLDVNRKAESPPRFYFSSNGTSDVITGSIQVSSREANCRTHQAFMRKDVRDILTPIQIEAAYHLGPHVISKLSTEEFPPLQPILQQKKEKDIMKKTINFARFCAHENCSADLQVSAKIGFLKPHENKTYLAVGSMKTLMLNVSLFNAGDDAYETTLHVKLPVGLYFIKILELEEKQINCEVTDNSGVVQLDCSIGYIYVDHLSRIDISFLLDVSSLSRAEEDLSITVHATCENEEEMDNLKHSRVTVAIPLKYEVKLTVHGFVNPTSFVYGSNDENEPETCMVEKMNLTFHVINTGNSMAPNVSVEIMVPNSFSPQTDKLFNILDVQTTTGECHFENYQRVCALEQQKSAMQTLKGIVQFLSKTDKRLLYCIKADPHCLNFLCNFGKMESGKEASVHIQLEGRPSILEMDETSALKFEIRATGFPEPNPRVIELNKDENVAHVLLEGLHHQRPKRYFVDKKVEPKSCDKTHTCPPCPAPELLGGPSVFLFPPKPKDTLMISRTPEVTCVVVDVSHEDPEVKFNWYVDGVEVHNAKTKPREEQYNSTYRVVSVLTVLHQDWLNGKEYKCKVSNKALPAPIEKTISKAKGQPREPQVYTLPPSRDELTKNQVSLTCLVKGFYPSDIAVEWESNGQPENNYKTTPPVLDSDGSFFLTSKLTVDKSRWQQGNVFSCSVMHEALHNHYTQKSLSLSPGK
# T1 sequence (chain, as listed by the source limits assumed, chain 2 of 2): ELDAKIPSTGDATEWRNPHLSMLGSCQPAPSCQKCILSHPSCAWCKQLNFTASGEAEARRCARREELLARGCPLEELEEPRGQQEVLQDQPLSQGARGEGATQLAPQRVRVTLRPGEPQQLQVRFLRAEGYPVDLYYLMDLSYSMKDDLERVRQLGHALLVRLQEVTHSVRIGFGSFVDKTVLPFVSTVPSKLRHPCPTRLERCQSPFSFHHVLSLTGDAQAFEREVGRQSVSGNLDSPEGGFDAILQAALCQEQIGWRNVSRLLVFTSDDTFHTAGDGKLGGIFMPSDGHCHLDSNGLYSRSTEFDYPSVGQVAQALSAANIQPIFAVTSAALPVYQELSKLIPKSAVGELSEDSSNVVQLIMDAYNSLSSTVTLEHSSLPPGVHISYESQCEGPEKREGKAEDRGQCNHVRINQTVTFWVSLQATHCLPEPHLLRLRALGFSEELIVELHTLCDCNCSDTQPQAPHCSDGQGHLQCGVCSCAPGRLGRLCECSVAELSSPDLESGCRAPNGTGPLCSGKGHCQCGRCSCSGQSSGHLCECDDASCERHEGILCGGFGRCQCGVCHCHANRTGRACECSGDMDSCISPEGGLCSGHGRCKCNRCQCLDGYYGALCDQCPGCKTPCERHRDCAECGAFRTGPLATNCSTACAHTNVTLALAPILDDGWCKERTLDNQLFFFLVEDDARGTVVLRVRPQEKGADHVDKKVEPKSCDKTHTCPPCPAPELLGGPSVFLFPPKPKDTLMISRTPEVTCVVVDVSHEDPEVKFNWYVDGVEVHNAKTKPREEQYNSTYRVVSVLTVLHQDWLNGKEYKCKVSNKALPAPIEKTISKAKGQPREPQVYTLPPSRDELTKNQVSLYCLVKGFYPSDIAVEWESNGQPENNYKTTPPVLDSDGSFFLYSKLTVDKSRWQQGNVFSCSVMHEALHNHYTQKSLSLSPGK
# Protocol details: SPR (BIACORE), LPAM-1-Fc captured by anti-human IgG, 1 mM MnCl2, 1:1 Langmuir
# Experimental: The kinetic 2D-VCAM-1 assay measures binding kinetics of a dimeric ligand (e.g., VLA-Fc fusion protein or LPAM-1-Fc fusion protein) coated to sensor chips and monomeric analyte (e.g., 2D-VCAM-1 variant polypeptides) in the mobile phase. […] Typically, 8 dilutions of 2D-VCAM-1 variant polypeptides ranging from 150 nM to 0.069 nM were analyzed against a blank reference (HBS-P-Mn buffer alone).
Observable: binding affinity for LPAM-1-Fc relative to human 2D-VCAM-1 (fold)
Give bare numbers, in fold.

| Binder | Unit abbrev | Assay value |
| --- | --- | --- |
| 2D-VCAM-1 variant Clone 47 (ligand, also called Clone 047; not shown: His tag) FKIETTPESRYLAQIGDSVSLTCSTTGCESPFFSWRPLLDSPLNGKVTNEGTTSTLTMNPVSFGNEHSYLCTATCESRKLEKGIQVEIYSFPKDPEIHLSGPLEAGKPITVKCSVADVYPFDRLEIDLLKGDHLMKSQEFLEDADRKSLETKSLEVTFTPVIEDIGKVLVCRAKLHIDEMDSVPTVRQAVKELQVYISP | fold | 38 |

[Q] I would be grateful if you could share the reported binding affinity for LPAM-1-Fc relative to human 2D-VCAM-1 for 2D-VCAM-1 variant Clone 146 (ligand, not shown: small tags and cut ends) FKIETTPESRYLAQIGDSVSLTCSTTGCESPLFFWRPLLDSPLNGKVTNEGTTSTLTMNPVSFGNEHSYLCTARCESRSLEKGIQVEIYSFPKDPEIHLSGPLEAGKPITVKCSVADVYPFDRLEIDLLKGDHLMKSQEFLEDADRKSLETKSLEVTFTPVIEDIGKVLVCRAKLHIDEMDSVPTVRQAVKELQVYISP .
[A] 565
